// provenance: PubChem BioAssay (NCI)

- Test system: K-562 leukemia
- EXPERIMENT_NOTES: NCI-60 one-dose screen, 48 h
- TEST_CONDITIONS: 10 µM unless noted
The panel holds about 83,000 compounds, 20% with a hit somewhere; the sample as a whole holds those more often. Calls of active or inactive are those of the source. The calls were made as follows: active = growth percent below 10; inactive = the rest.
Classes used: active, inactive

INSERT INTO results (chemical_smiles, group_label) VALUES
  ('O=C1/C(=C/c2ccc([N+](=O)[O-])cc2)COc2ccc(O)cc21', 'inactive'),
  ('CSc1nc(N)c(NS(=O)(=O)c2ccc(C(C)=O)cc2)c(=O)[nH]1', 'inactive'),
  ('Cc1ccc(-c2nc([P+](c3ccccc3)(c3ccccc3)c3ccccc3)c(S(=O)(=O)c3ccc(C)cc3)o2)cc1', 'active'),
  ('O=C(CSc1nc2sc3c(c2c(=O)n1-c1ccccc1)CCCCC3)N/N=C/c1cccc([N+](=O)[O-])c1', 'inactive'),
  ('COc1cc(-c2csc(NC(=O)c3ccc(N4CCOCC4)c(C(F)(F)F)c3)n2)cc(OC)c1OC', 'inactive');

====

- System: SF-268 CNS
- EXPERIMENT_NOTES: NCI-60 one-dose screen, 48 h (100 = growth as untreated, 0 = no growth, -100 = all killed)
- TEST_CONDITIONS: 10 µM unless noted
About 83,000 compounds went through this panel and 20% of them were active in at least one assay; those are over-represented in the sample as a whole.
Label true when growth is at or above 40%; otherwise label false.

INSERT INTO assay_data (compound, group_label) VALUES
  ('COC(=O)c1c2c(c(C)[n+]([O-])c1C)C(=O)C(NCc1cccc(OC)c1)=CC2=O', 'false'),
  ('CCOC(=O)c1c(NC(=O)c2ccc(Cl)cc2)sc2c(CN(C)C)c(O)ccc12', 'true'),
  ('Cc1nc2sc(C(=O)Nc3cccc4ccccc34)c(N)c2cc1C(O)c1ccccc1 (stereo not given)', 'false'),
  ('CC/C=C\C[C@H](O)C/C=C1/C(=O)C=C[C@@H]1C/C=C\CCCC(=O)N(C)C', 'false'),
  ('Cn1ccnc1C(=O)/C=C/c1ccc(C(=O)Nc2ccccc2O)cc1', 'false'),
  ('N=C(N)c1ccc(-c2ccc(-c3ccc(Cl)cc3Cl)s2)cc1', 'true'),
  ('C=CCN=c1sc2c(n1NC(=O)c1cc3ccc1CCc1ccc(cc1)CC3)C(=O)c1ccccc1C2=O', 'false'),
  ('CCSc1nc2scc(C)c2c(=O)[nH]1', 'true'),
  ('Clc1ccc2c(NC3CCC(N4CCOCC4)CC3)ccnc2c1 (stereo not given)', 'true'),
  ('COc1ccc(-c2cc(-c3cccnc3)nc3sc4c(=O)[nH]c(-c5ccc(Cl)cc5)nc4c23)cc1OC', 'true');

====

- System: A549/ATCC NSCLC
- EXPERIMENT_NOTES: NCI-60 one-dose screen, 48 h (100 = growth as untreated, 0 = no growth, -100 = all killed)
- TEST_CONDITIONS: 10 µM unless noted
Compounds without any hit were thinned out: in the full panel of roughly 83,000, 20% have a hit.
QUANTITY_NAME: growth (%)

INSERT INTO results (compound, meas_value) VALUES
  ('NC(=O)c1ccc(-c2c3ccccc3cc3c2ccc2ccccc23)cc1', 63.1),
  ('CN1C(=O)/C(=C\c2c(Cl)cccc2Cl)c2ccccc21', 88),
  ('N#Cc1c(-c2ccccc2)cc(-c2ccccc2)n(CCCC(=O)Nc2ccccc2N)c1=O', 57.4),
  ('Cc1ccccc1/C=C/C(=O)c1cccc(OCCCCOc2cccc(C(=O)/C=C/c3ccccc3C)c2)c1', 84.2),
  ('CCN(CC)CCCCCNc1cc(OC(=O)c2ccc(Cl)cc2)cc2cccnc12', 95.3),
  ('O=C(Nc1ccc(Oc2cccc(Cl)c2)c(Cl)c1)c1cnccn1', 23.9),
  ('O=C(/C=C/c1cccs1)Nc1ncc(Cc2ccccc2F)s1', 29),
  ('CCN1C(=S)N(c2ccccc2)C2C1NN=c1s/c(=C3\C(=O)N(C(C)C)c4ccccc43)c(=O)n12 (stereo not given)', 57.8),
  ('O=C(CN1C(=O)S/C(=C\c2ccccc2)C1=O)Nc1ncc(Cc2ccccc2Cl)s1', 98.6),
  ('CSc1nnc(-c2cc3c([nH]c4ccccc43)c(-c3cccc(O)c3)n2)n1-c1ccccc1', 46.1);
